# credit: paper PMC3448374

For GAA (Homo sapiens, UniProt P10253), measured pKd is reported for the entries below.
pKd: −log10 of the molar value.

entrySmiles: CC(=O)c1ccc(N2CCN(S(=O)(=O)c3ccc4c(c3)CC(=O)N4)CC2)cc1
targetOrTestSystem: GAA (Homo sapiens, UniProt P10253)
metric: pKd
dataValue: 4.22 to 4.70

q: Query: pKd; subject: CC(=O)c1ccc(N2CCN(S(=O)(=O)c3cc4c(cc3Cl)NC(=O)C4)CC2)cc1
a: 4.22 to 4.70
